assay: yeast display, Sf9 membrane polyspecificity reagent, FACS + sequencing; frameworks hold sequencing errors
test readout: polyreactivity (PSR sort gate)

polymer_sequence=QVQLVESGGGLVQAGGSLRLSCAASGLTFNYYDRGWYRQAPGKERELVAAISRSRTNTSYADSVKGRFTISRDNAKNTVYLQMNSLKPEDTAVYYCNAAGVYLAAGPYTANFNYNYWGQGTQVTVSS test_readout="polyreactivity (PSR sort gate)" recorded_result="low polyreactivity"
polymer_sequence=QVQLVESVGGLVQAGGSLRLSCAASGITFFNYAMGWYRQAPGKERELVARINWSGGSTYYADSVTGRFTISRDNAKNTVYLQMNSLKPEDTAVYYCAARYWLPRGRRYDYWGQGTQVTVSS test_readout="polyreactivity (PSR sort gate)" recorded_result="high polyreactivity"
polymer_sequence=QVQLVESGGGLVQAGGSLRLSCGASGFIFEGYSMGRYRQAPAKERELVAANTRGDSTNYADSVKGRFTISRDNAKNTVYLLMNSLKTEDTAVYYCAKTNLIGTDFTSPVQYYYWGQGTQVTVSS test_readout="polyreactivity (PSR sort gate)" recorded_result="low polyreactivity"
polymer_sequence=QVQLVESCGGLVQAGCSLRLSCAASGRTFAYNAMGWYRQAPGKERELVADITSGGSTYYADSVKGRFTISRDNAKNTVYLQMNSLKPEDTAVYYCAAYPQFWYWDYNYWGQGTQVTVSS test_readout="polyreactivity (PSR sort gate)" recorded_result="high polyreactivity"

Continue with the next sequence.
Any idea what its polyreactivity (PSR sort gate) is? The sequence is QVQLVESGGGLVQAGGSLRLSCAASGRIFGYTMGWYRQAPGKERELVAAISKSGGSTYYADSVKGRFTISRDNAKNTVYLQMNSLIPEDTAVYVCNKPQRILYDYWGQGSQVTVSS
high polyreactivity

====

assay: yeast display, Sf9 membrane polyspecificity reagent, FACS + sequencing; frameworks hold sequencing errors
test readout: polyreactivity (PSR sort gate)

Examples from the recorded data:
polymer_sequence=QVQLVESGGGLVQAGGSLRLSCAASGFTFSYYAMGWYRQAPGHEREFVAAIIWNGTSTYYADSVKGRFTISRDNAKNTVYLQMNSLKPEDTAVYYCAAYDVHDYDYWGQGTQVTVSS test_readout="polyreactivity (PSR sort gate)" recorded_result="high polyreactivity"
polymer_sequence=QVQLVESGGGLDQAGRSLRLSCAASGRTDVTYAMGWYRQAPGKEREFVAAISASGGTTYYADSVKGRFTISRDNSKNTVYLQMNSRKPEDTAVYYCAADIRGTVYLSSFWMEYWGQGTQVNVSS test_readout="polyreactivity (PSR sort gate)" recorded_result="low polyreactivity"
polymer_sequence=QVQLVESGGGLVQAGGSLRLTCAASGSIFFDYGMGWYRQAPGKERELVATITRGTGSTYYADSVKGRFTISRDNAKNTVSLQMNSLKPEDTAVYYCAESYSYYNSYDYWGQGTQVTVSS test_readout="polyreactivity (PSR sort gate)" recorded_result="high polyreactivity"
polymer_sequence=QVQLVESGGGLVQAGGSLRLSCAASGSIFVTNAMGWYRQAPGKERELVAAISVSGGSTYYADSVKGRFTISRDKAKNTVYLQMNSLKPEDTAVYYCNTVRSPPGHDYWGLGTQVTVSS test_readout="polyreactivity (PSR sort gate)" recorded_result="low polyreactivity"
polymer_sequence=QVQLVESGGGLVQAGVSLRLSCAASGRIFYRYAMGWYRPPPVKERELVAGITSGGSTYYADSVKGRFTISRDNAKNTVYLQMMSLKPEDTAVYYCAAVSYRSRTHRYPATFAYGSWGQGTQETVSS test_readout="polyreactivity (PSR sort gate)" recorded_result="high polyreactivity"

Any idea what its polyreactivity (PSR sort gate) is? The sequence is QVQLVESGGGLVQAGGSLRLSCAASGLIFQRNTMGWYRQAPGKERELVAAISRSGGSTYYADSVKGRFTISRDNAKNTVYLQMNSLKPEDTAVYYCAALIFRHRGKDDDYWGQGTQVTVSS
high polyreactivity

Next entry: QVQLVESVGGLVQAGGSLRLSCAASGRTFARYAMGWERQAPGQERELVAAISRNTGSTYADSVKGRFTISRDNAKNTVSLQMNSLKPEDTAVYYFASSWRGQDPYYRYVGRDYWGQGTQVTVSS
high polyreactivity

Next entry: QVQLVESGGGLVQAGGSLRLSCAASGSIFEINAKGWYRQAPGKERELVADIRRGDSTNYADSVKGRFTISRDNAKNTVYLQMNSLKPEDTAVYYCAAYHRLFDYDYWGQGTQVTVSS
high polyreactivity

Next entry: QVQLVESGGGLVQAGGSLRLSCAASGRTFGLYAMGWYRQAPGKERELVAAIDQSTGSTYYADSVKGRFTISRDNSKNTVYLQMNSLKQEDTAVYYCAAEEASTVRYYWYDYWGLGTQVTVSS
high polyreactivity

Next entry: QVQLVESGGGLVQAGGSLRLSCAASGSTFFYYTMGWYRQAPGKERELVAAISRGGRTNYADSVKGRFTISRDNAKNTVYLLMNSLKREDTAVFYCIADAWSFRQYWGRYDYWGQGTQVTVSS
high polyreactivity

Next entry: QVQLVESGGGIVQAGGSLSLTWAASGSTFAYYAMGRYRQAPGKERELVAAISSSGGRTYYADSVKWRFTISRDNAKNTVYLQMIMLKPEDSAVYYCWGQATQVTVSS
low polyreactivity

====

experiment: yeast display, Sf9 membrane polyspecificity reagent, FACS + sequencing; frameworks hold sequencing errors
test readout: polyreactivity (PSR sort gate)

Examples from the recorded data:
polymer_sequence=QVQLVESGGGIVQAGGSLRLSCAASGFIFQRYVMGWYRQEPGKERQLVAAISSGGSTNYADSVKGRFTISRDNAKNTVYLQMNSLKAEDTAVYYFAADGFYYRNWGRFRYYYWGLGTQVTVSS test_readout="polyreactivity (PSR sort gate)" recorded_result="low polyreactivity"
polymer_sequence=QVQLEESGGGLVQAGGSLRLSCAASGSIFYYNAMGWYRQAPGTERELVAAIRRSGGRTYYADSVKGRFTISRDNAKNSVYLQMNSLKPEDTAVYYCAAVHYDRVTCQVDNDYWGQGTQVTVSS test_readout="polyreactivity (PSR sort gate)" recorded_result="high polyreactivity"
polymer_sequence=QVQLVESGGGLVQAGGSLRLSCAASGFTFWRYAMGWYRQAPGKDRELVAAISSSGGSTYYADSVKGRFTISRDNAKNTVYLQMNSLKPEVTAVYYCATSVRFVRGWGYSYRGYDYWGQGTQVTVSS test_readout="polyreactivity (PSR sort gate)" recorded_result="high polyreactivity"
polymer_sequence=QVQLVESGGGLVQAGGSLRLSCAASGSIFGPNAMGWYRQSPGKERELVAAISWGGGSTYYADSVKARITISRDNAINTVYLQMNILKPEDTGVYYCNASGYHDTAVRYDYWGQGTQVTVSS test_readout="polyreactivity (PSR sort gate)" recorded_result="low polyreactivity"
polymer_sequence=QVQLVESGGGLVQAAGSLRLSCAASGNTFRWYVMGWYRQAPGKERELVAAITSSGSNTYYADSVKGRFTISRDNAKNTVYLQMNSLKPEDTAVYYCAARNYGPYDYWGQGTQVTVSS test_readout="polyreactivity (PSR sort gate)" recorded_result="low polyreactivity"

Any idea what its polyreactivity (PSR sort gate) is? The sequence is QVQLVESGGGLVQAGGSLRLSCAASGFIFYQYAMGWYRQAPGKERELVATISFRGGRTYYADSVKGRFTISRDNAKNTVYLQMNSLKPEDTAVYYCNAKRVSSRFYKWDYYWGQGTQVTVSS
high polyreactivity

Next entry: QVQLVESGGGLVQAGGSLRLSCAASGIIFYGNAMGWYRQAPGKERELVAAISWSGSSTYYADSVKGRFTISRDNAKNTVYLQMNSLKPEDTAVYYCAADIPYQFVRDVYYWGQGTQVTLSS
high polyreactivity

Next entry: QVQLVESGGGLVQAGGSLRLSCAASGSTFRPNAMGWYRQAPGKERELVAAITSGGSTYYADSVKGRFTISRDNAKNTVYLQMNSLKPEDTAVYYCNKDKFWSYPVQVNLDYWGQGTQVTVSS
low polyreactivity

====

assay: yeast display, Sf9 membrane polyspecificity reagent, FACS + sequencing; frameworks hold sequencing errors
test readout: polyreactivity (PSR sort gate)

Examples from the recorded data:
polymer_sequence=QVQLVESGGGLVQAGGSLRLSCAASGSIFSRNAMGWYRQAPGKERELVASMSWRGGSTNYADSVKGRFTISRDNAKNTVYLQMNSLKPEDTAVYYCNAPYRHQPGGGYWGQGTQVTVSS recorded_result="low polyreactivity"
polymer_sequence=QVQLVESGGGLVQAGGSLRISCAASGRTFRRYEMGWYREAPGKERELVASISSSAGSTYYADSVKGRFTISRDNAKNTVYFQMNSLKPEDTAVYYCAFVPTVYARSRYGYWGQGTQVTVSS recorded_result="high polyreactivity"
polymer_sequence=QVKLVESGGGLVQAGGSLRLSCAASGSIFGGNAMGWYRQAPGKEREFVARITKRGGSTDYADSVKGRFTISRDNAKNTVYLQMNSLKPEDTAVYYCATGWTSKVHYRYGYWGQGTQVTVSS recorded_result="high polyreactivity"
polymer_sequence=QVQHVESGGGLVQAGGSLRLSCAASGRIFVRNAMGWYIQAPGKERELVAAITSGASTYYADSVKGRFTISRDNAKYTVYFQMYSVKPEDTAVSYCAAQAVIASWWTVDYYYWGQGTQVTVSS recorded_result="high polyreactivity"

Any idea what its polyreactivity (PSR sort gate) is? The sequence is QVQLVESGGGLVQAGGSLRLSCAASGRTLTSYAMGWYRQAPGKERELVARISNGGNTKYADSVNGRFTISRDNAKNTVYLQMNSLKPEDTAVYYCAADYSYYHGPSRHKHDYWGQGTKVTVSS
low polyreactivity
